Where a name gives a salt, the structure may show the parent alone.
measurement-label: melting point

| compound | measurement-label | measured-value |
| --- | --- | --- |
| Cl.c1cc2c3c(c1)c(-c1ccnc(NCC4CCNCC4)n1)cn3CCC2 | melting point | 192 to 194 °C |

Looking for the measured melting point of CCOC(=O)CNC(=O)N1CCC(CNc2nccc(-c3cn4c5c(cccc35)CCC4)n2)CC1 (as salt: trifluoroacetate) , can you help?
170 to 172 °C

Looking for the measured melting point of CC(C)(C)C(=O)N1CCC(CNc2nccc(-c3cn4c5c(cccc35)CCC4)n2)CC1 (as salt: trifluoroacetate) , can you help?
170 to 172 °C

Looking for the measured melting point of Cl.c1cc2c3c(c1)c(-c1nnnn1C1CCNCC1)cn3CCC2 , can you help?
198 to 200 °C

Looking for the measured melting point of O=S(=O)(c1ccc(Cl)cc1)N1CCC(CNc2nccc(-c3cn4c5c(cccc35)CCC4)n2)CC1 (as salt: trifluoroacetate) , can you help?
140 to 142 °C

---

measured-target: FGFR2 (N549H) (Homo sapiens, UniProt P21802, N549H)
Construct: purchased Millipore 14-742
Sequence (P21802 22-821 N549H): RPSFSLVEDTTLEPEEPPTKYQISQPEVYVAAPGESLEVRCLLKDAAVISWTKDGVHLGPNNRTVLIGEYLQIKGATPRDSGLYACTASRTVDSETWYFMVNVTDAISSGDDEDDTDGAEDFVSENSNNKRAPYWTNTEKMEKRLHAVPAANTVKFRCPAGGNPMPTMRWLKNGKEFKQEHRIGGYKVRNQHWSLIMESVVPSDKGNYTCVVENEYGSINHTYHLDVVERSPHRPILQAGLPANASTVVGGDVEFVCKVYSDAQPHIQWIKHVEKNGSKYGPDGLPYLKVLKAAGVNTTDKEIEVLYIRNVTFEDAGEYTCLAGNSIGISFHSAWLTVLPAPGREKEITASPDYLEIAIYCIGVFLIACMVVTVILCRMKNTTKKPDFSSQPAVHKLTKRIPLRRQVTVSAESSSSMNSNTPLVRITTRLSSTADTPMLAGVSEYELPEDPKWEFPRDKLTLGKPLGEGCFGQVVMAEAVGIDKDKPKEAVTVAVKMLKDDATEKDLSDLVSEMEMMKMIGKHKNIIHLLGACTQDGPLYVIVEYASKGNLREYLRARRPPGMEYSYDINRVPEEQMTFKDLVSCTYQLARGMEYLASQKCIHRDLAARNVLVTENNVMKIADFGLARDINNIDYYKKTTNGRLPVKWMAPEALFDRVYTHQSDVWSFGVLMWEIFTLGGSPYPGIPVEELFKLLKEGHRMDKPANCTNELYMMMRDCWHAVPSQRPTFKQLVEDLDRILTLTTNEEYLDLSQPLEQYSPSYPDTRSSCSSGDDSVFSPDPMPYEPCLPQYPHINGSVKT
experiment-summary: FGFR2 kinase activity assay (fluorescent ELISA)
Format: biochemical
measurement-label: inhibition at 30 µM (%)

| compound | measured-target | result-unit | inhibition at 30 µM |
| --- | --- | --- | --- |
| CC(C)NC(=O)N1CCC(CNc2nccc(-c3cn4c5c(cccc35)CCC4)n2)CC1 [Compound 46] | FGFR2 (N549H) (Homo sapiens, UniProt P21802, N549H) | % | 61 |
| COc1ccc(NC(=O)N2CCC(CNc3nccc(-c4cn5c6c(cccc46)CCC5)n3)CC2)cc1 [Compound 38] | FGFR2 (N549H) (Homo sapiens, UniProt P21802, N549H) | % | 79 |
| Cc1ccc(NC(=O)N2CCC(CNc3nccc(-c4cn5c6c(cccc46)CCC5)n3)CC2)cc1 [Compound 45] | FGFR2 (N549H) (Homo sapiens, UniProt P21802, N549H) | % | 64 |

a. CS(=O)(=O)N1CCC(CNc2nccc(-c3cn4c5c(cccc35)CCC4)n2)CC1 [Compound 48]
b. c1cc2c3c(c1)c(-c1nnnn1CC1CCNCC1)cn3CCC2 [Compound 81]
# returns the entry with the larger inhibition at 30 µM; inputs a and b Lab log: write the label of the selected item as the result.
b
(b: 91%, a: 59%)

---

measured-target: FGFR2 (N549H) (Homo sapiens, UniProt P21802, N549H)
Construct: purchased Millipore 14-742
experiment-summary: FGFR2 kinase activity assay (fluorescent ELISA)
Assay type: biochemical
measurement-label: inhibition at 30 µM (%)

Some solved entries appear below for comparison.
| molecule | measurement-label | result-unit | measured-value |
| --- | --- | --- | --- |
| O=c1[nH][nH]c(-c2cn3c4c(cccc24)CCC3)c1-c1c[nH]c2ccccc12 | inhibition at 30 µM | % | 96 |
| c1cc2c3c(c1)c(-c1nnnn1C1CCCNC1)cn3CCC2 (stereo not shown) | inhibition at 30 µM | % | 84 |
| c1cc2c3c(c1)c(-c1ccnc(N[C@H]4CCCNC4)n1)cn3CCC2 | inhibition at 30 µM | % | 102 |
| O=C(Nc1ccc(-c2ccccc2)cc1)N1CCC(CNc2nccc(-c3cn4c5c(cccc35)CCC4)n2)CC1 | inhibition at 30 µM | % | 71 |
| O=C(Nc1ccc(Cl)cc1)N1CCC(CNc2nccc(-c3cn4c5c(cccc35)CCC4)n2)CC1 | inhibition at 30 µM | % | 65 |
| O=c1[nH][nH]c(-c2ccc(Cl)cc2Cl)c1-c1cn2c3c(cccc13)CCC2 | inhibition at 30 µM | % | 48 |
| CCCNC(=O)N1CCC(CNc2nccc(-c3cn4c5c(cccc35)CCC4)n2)CC1 | inhibition at 30 µM | % | 65 |
| CCOC(=O)CNC(=O)N1CCC(CNc2nccc(-c3cn4c5c(cccc35)CCC4)n2)CC1 | inhibition at 30 µM | % | 60 |
| CCOC(=O)NC(=O)N1CCC(CNc2nccc(-c3cn4c5c(cccc35)CCC4)n2)CC1 | inhibition at 30 µM | % | 68 |
| CCOC(=O)c1ccc(NC(=O)N2CCC(CNc3nccc(-c4cn5c6c(cccc46)CCC5)n3)CC2)cc1 | inhibition at 30 µM | % | 68 |

1. CC(C)(C)NC(=O)N1CCC(CNc2nccc(-c3cn4c5c(cccc35)CCC4)n2)CC1
2. O=c1[nH][nH]c(-c2ccc3ccccc3c2)c1-c1cn2c3c(cccc13)CCC2
Record comparison, field inhibition at 30 µM: mark the lower of 1 and 2 . Lab log: write the label of the selected item as the result.
1
(1: 51%, 2: 94%)
